B1: ESR2 (parent)
chain: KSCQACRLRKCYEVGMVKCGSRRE

variants of: B1; experiment: protein stability index of a GFP-peptide fusion (GPS, HEK-293T) (PSI 1-6); higher = more stable; conditions: c terminus: a fixed tail appended;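 further: lentivirally expressed fusions sorted by FACS into six bins by GFP to DsRed ratio, PSI derived from sequencing read proportions per bin multiplied by bin number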
// FALSE strictly below 2 in protein stability index; TRUE otherwise

Here's what some known entries look like.
INSERT INTO results (variant_descriptor, qualitative_label) VALUES
  ('V14F', 'FALSE'),
  ('M16E', 'FALSE'),
  ('C11H', 'FALSE'),
  ('L8F', 'TRUE'),
  ('V17K', 'TRUE'),
  ('G15A', 'FALSE'),
  ('E13C', 'TRUE'),
  ('V17P', 'FALSE'),
  ('K1W', 'FALSE');

Could you now look at the following variant, please?
protein stability index >= 2 for "Q4C" ?
FALSE
